Biological target: aldehyde dehydrogenase 2 (ALDH2) (Homo sapiens, UniProt P05091)
Construct: purchased ATGen Inc
Sequence (P05091 18-517): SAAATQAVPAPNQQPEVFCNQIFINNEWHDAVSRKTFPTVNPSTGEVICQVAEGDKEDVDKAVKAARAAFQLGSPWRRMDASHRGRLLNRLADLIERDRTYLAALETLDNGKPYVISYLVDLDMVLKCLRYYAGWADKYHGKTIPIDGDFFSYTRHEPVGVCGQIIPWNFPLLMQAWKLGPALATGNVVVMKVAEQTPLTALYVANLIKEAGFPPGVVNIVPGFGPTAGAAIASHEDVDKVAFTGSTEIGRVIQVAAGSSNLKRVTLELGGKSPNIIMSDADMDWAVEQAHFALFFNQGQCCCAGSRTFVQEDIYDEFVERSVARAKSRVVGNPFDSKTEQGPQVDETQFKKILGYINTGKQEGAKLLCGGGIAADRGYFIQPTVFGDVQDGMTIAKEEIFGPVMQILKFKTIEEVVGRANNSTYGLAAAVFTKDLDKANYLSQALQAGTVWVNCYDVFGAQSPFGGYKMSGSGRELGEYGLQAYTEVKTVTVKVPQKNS
Test: Effects of compounds on the acetaldehyde oxidation rate by ALDH2 (PicoProbe Aldehyde dehydrogenase Activity Assay Kit)
Assay type: biochemical
Settings: compound concentration 1 μM; read-out: acetaldehyde oxidation rate (rate in the absence of the compounds = 100)
measurement-type: activity at 1 µM (%)
State just the number; it will be interpreted in %.

O=C(NCc1ccc2c(c1)OCO2)c1c(Cl)cccc1Cl [Comparative Example 1, reference compound]    137
COCc1ccc(CNC(=O)c2c(F)cccc2Cl)cc1F [Example 10]    125
COCc1ccc(CNC(=O)c2c(Cl)cccc2C(C)C)cc1F [Example 12]    136
COCc1ccc(CNC(=O)c2c(F)cccc2Br)cc1F [Example 8]    128

Tell me the measured activity at 1 µM of O=C(NCc1ccc2c(c1)OCCO2)c1c(Cl)cccc1Cl [Comparative Example 2, reference compound] , please.
125

Again, but for COCc1ccc(CNC(=O)c2c(Cl)cccc2Br)cc1F [Example 5]
129

Again, but for COCc1ccc(CNC(=O)c2ccccc2Cl)cc1F [Example 6]
108

Again, but for COCc1ccc(CNC(=O)c2c(Cl)cccc2Cl)cc1C [Example 4]
136

Again, but for COCc1ccc(CNC(=O)c2c(F)cccc2F)cc1F [Example 13]
114

Again, but for COCc1ccc(CNC(=O)c2ccccc2Br)cc1F [Example 7]
119

Again, but for COCc1ccc(CNC(=O)c2c(Cl)cccc2Cl)cc1F [Example 1]
138

Again, but for COCc1ccc(CNC(=O)c2c(C)cccc2C)cc1F [Example 11]
117

Again, but for COCc1cc(F)c(CNC(=O)c2c(Cl)cccc2Cl)cc1F [Example 2]
125

Again, but for COCc1ccc(CNC(=O)c2c(Cl)cccc2Cl)cc1 [Example 3]
117

---

Target: aldehyde dehydrogenase 2 (ALDH2) (Homo sapiens)
Construct: purchased ATGen Inc
Assay: Effects of compounds on the acetaldehyde oxidation rate by ALDH2 (PicoProbe Aldehyde dehydrogenase Activity Assay Kit)
Type: biochemical
Conditions: compound concentration 10 μM; read-out: acetaldehyde oxidation rate (rate in the absence of the compounds = 100)
measurement-type: activity at 10 µM (%)
State just the number; it will be interpreted in %.

These solved cases illustrate the format of a correct answer.
COCc1ccc(CNC(=O)c2ccccc2Br)cc1F    156
COCc1ccc(CNC(=O)c2c(F)cccc2Cl)cc1F    168
O=C(NCc1ccc2c(c1)OCO2)c1c(Cl)cccc1Cl [Comparative Example 1, reference compound]    175
O=C(NCc1ccc2c(c1)OCCO2)c1c(Cl)cccc1Cl [Comparative Example 2, reference compound]    164
COCc1ccc(CNC(=O)c2c(Cl)cccc2Br)cc1F    168

As a next step, examine the molecule that follows.
Tell me the measured activity at 10 µM of COCc1cc(F)c(CNC(=O)c2c(Cl)cccc2Cl)cc1F , please.
168

---

Target: aldehyde dehydrogenase 2 (ALDH2) (Homo sapiens)
Construct: purchased ATGen Inc
Assay: Effects of compounds on the acetaldehyde oxidation rate by ALDH2 (PicoProbe Aldehyde dehydrogenase Activity Assay Kit)
Assay type: biochemical
Conditions: compound concentration 10 μM; read-out: acetaldehyde oxidation rate (rate in the absence of the compounds = 100)
measurement-type: activity at 10 µM
Write the quantity with the unit trailing the number.

COCc1ccc(CNC(=O)c2c(C)cccc2C)cc1F    156%
COCc1ccc(CNC(=O)c2ccccc2Cl)cc1F    148%

Tell me the measured activity at 10 µM of COCc1ccc(CNC(=O)c2c(F)cccc2Br)cc1F , please.
165%

Again, but for COCc1ccc(CNC(=O)c2c(F)cccc2F)cc1F
143%

Again, but for COCc1ccc(CNC(=O)c2c(Cl)cccc2C(C)C)cc1F
175%
